# experimental_target: T1, EGFR Fc (human, UniProt P00533 25-645)
# T1 construct: also called EGFR-hFc; recombinant human EGFR-Fc
# assay_procedure: blocking ELISA, EGFR-hFc + VHH at 0.32 nM on coated EGF-mFc
experimental_endpoint: OD450

* pgEG-SX22 (VHH, not shown: small tags and cut ends) VHH: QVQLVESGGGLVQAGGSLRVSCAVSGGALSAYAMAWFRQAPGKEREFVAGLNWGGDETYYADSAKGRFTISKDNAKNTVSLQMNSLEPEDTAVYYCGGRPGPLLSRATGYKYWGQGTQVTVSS | 0.955
* pgEG-SX3 (VHH, not shown: small tags and cut ends) VHH: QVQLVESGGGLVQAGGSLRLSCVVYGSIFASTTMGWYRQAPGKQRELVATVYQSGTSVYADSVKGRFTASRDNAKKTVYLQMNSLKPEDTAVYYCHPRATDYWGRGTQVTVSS | 0.806
